- target-system: UniProt:Q15858
- assay-procedure: Electrophysiology (EP) whole-cell patch clamp assay, hNav1.7 expressing HEK-293 cells
- Assay type: cell-based
- experimental-parameters: affinity for inactivated channels; read-out: Nav1.7 Activity EP assay Ki
observation-type: pKi
Answer as the number alone; pKi is minus log10 of concentration in mol/L.

COc1ncc(-c2ccccc2C2CCCN(C(=O)c3ccc(OCC(F)(F)F)nc3)C2)cn1 (centres unmarked) [Compound 13]
5.68

Query: Need pKi of COc1ncc(-c2ccccc2C2CCCN(C(=O)c3ccc(OCC(F)(F)F)cc3)C2)cn1 (centres unmarked) [Compound 6] , thanks.
Result: 6.29

====

- target-system: human Nav1.7 (Homo sapiens (Human), UniProt Q15858)
- Sequence (Q15858 other isoform, or with tags, fused parts or gaps): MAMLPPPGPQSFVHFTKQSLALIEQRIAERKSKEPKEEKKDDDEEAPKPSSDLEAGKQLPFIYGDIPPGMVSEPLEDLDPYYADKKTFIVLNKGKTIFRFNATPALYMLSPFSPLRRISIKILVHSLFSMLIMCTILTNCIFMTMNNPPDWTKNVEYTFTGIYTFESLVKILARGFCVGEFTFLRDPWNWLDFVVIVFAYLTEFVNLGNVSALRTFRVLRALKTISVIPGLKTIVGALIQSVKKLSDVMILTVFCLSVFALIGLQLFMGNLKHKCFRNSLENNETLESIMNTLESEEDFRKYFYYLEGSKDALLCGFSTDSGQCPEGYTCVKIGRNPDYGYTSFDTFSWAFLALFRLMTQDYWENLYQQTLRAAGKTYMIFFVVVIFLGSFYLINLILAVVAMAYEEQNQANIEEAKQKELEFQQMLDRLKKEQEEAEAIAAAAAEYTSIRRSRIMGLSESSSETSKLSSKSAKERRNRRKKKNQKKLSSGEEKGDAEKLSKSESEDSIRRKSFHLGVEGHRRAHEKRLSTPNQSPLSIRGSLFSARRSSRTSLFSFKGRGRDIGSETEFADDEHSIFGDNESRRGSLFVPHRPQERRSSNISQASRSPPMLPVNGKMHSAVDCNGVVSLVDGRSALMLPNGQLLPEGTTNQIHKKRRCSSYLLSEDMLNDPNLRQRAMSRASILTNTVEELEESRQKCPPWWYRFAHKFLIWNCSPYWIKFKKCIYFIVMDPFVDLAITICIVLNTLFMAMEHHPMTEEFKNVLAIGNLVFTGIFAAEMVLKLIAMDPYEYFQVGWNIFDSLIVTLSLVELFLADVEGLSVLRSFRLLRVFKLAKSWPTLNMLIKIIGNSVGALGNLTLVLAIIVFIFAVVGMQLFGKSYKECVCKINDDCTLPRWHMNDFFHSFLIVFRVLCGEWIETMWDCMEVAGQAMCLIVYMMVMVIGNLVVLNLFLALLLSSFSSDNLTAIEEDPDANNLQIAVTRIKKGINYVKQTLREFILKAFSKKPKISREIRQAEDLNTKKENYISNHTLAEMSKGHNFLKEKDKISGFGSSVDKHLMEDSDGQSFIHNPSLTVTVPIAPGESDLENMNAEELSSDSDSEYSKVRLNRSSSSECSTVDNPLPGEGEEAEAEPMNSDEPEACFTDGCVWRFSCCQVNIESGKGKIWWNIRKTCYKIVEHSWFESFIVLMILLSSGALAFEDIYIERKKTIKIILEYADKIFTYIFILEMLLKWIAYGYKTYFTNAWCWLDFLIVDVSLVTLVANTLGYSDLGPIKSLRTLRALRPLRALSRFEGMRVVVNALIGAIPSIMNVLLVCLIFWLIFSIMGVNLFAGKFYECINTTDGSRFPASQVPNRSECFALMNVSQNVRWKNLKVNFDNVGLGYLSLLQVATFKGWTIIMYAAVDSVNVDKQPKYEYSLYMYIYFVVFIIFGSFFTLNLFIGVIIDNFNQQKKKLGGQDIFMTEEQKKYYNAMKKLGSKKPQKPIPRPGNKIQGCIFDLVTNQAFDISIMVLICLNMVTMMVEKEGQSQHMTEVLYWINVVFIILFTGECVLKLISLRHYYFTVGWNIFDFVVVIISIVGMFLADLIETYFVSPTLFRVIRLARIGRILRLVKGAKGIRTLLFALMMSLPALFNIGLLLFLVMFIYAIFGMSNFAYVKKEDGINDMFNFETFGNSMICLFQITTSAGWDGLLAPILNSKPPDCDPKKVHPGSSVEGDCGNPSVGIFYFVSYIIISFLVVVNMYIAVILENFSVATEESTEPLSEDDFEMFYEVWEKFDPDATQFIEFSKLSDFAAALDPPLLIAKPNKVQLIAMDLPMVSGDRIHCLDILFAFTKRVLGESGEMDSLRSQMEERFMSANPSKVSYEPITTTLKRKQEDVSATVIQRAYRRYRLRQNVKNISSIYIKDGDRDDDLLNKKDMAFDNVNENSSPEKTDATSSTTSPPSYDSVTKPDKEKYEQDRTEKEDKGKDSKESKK
- assay-procedure: FLIPR sodium dye assay with KCl and test article pre-incubation, recombinant Nav1.7/HEK293 cells
- experimental-parameters: Nav1.7, FLIPR assay
pIC50: −log10 of the molar value.
pIC50 vs 6: at or above is rule met, below is rule not met.

Query: Form field: pIC50 at least 6? Entry: O=C(c1ccc(OCC(F)(F)F)nc1)N1CCCC(c2ccccc2)C1 (centres unmarked)
Result: rule not met

Query: Please answer likewise for COc1ccc(C(=O)N2CCCC(c3ccccc3-c3cnc(N(C)C)nc3)C2)cc1 (centres unmarked)
Result: rule met

Query: Please answer likewise for COc1ncc(-c2ccccc2C2CCCN(C(=O)c3cccnc3N)C2)cn1 (centres unmarked)
Result: rule not met

Query: Please answer likewise for CN(C)c1ncc(-c2ccccc2C2CCCN(S(=O)(=O)Nc3ncns3)C2)cn1 (centres unmarked)
Result: rule not met

Query: Please answer likewise for O=C(c1ccc(OCC(F)(F)F)nc1)N1CCCC(c2ccccc2O)C1 (centres unmarked)
Result: rule not met

====

- target-system: human Nav1.7 (Homo sapiens (Human))
- assay-procedure: FLIPR sodium dye assay with KCl and test article pre-incubation, recombinant Nav1.7/HEK293 cells
- experimental-parameters: Nav1.7, FLIPR assay
Entries whose IC50 is below 0.7 µM take condition met; entries at or above 0.7 µM take condition not met.

Check out these entries, answers already filled in.
COc1ccc(S(=O)(=O)N2CCCC(c3ccccc3-c3cnc(N(C)C)nc3)C2)cc1 (stereo not drawn)
condition met
COc1ncc(-c2ccccc2C2CCCN(C(=O)c3ccc(OCC(F)(F)F)cc3)C2)cn1 (stereo not drawn)
condition met
COc1ccc(NC(=S)N2CCCC(c3ccccc3-c3cnc(N(C)C)nc3)C2)cc1 (stereo not drawn)
condition not met

Query: Here's an entry: CN(C)c1ncc(-c2ccccc2C2CCCN(C(=O)c3ccc(OCC(F)(F)F)nc3)C2)cn1 (stereo not drawn) . Is its IC50 below 0.7 µM?
Result: condition met

Query: Please answer likewise for CN(C)c1ncc(-c2ccccc2C2CCCN(C(=O)c3ccc(OCC(F)(F)F)cc3)C2)cn1 (stereo not drawn)
Result: condition met

Query: Please answer likewise for O=C(c1ccc(OCC(F)(F)F)nc1)N1CCCC(c2ccccc2-c2ccc(O)nc2)C1 (stereo not drawn)
Result: condition not met

Query: Please answer likewise for CN(C)c1ncc(-c2ccccc2C2CCCN(S(=O)(=O)c3ccc(OC(F)(F)F)cc3)C2)cn1 (stereo not drawn)
Result: condition met

Query: Please answer likewise for COc1ncc(-c2ccccc2C2CCCN(C(=O)c3ccc(OCC(F)(F)F)nc3)C2)cn1 (stereo not drawn)
Result: condition not met

Query: Please answer likewise for CN(C)c1ncc(-c2ccccc2C2CCCN(C(=S)Nc3ccc(C(F)(F)F)cc3)C2)cn1 (stereo not drawn)
Result: condition not met

Query: Please answer likewise for CN(C)c1ncc(-c2ccccc2C2CCCN(C(=O)c3cccc(C(N)=O)c3)C2)cn1 (stereo not drawn)
Result: condition not met

Query: Please answer likewise for CN(C)c1ncc(-c2ccccc2C2CCCN(C(=O)c3ccc(C(N)=O)cc3)C2)cn1 (stereo not drawn)
Result: condition not met

Query: Please answer likewise for COc1ccc(C(=O)N2CCCC(c3ccccc3-c3cnc(N(C)C)nc3)C2)cc1[C@@H](O)CO (stereo partly drawn)
Result: condition not met

Query: Please answer likewise for O=C(c1ccc(OCC(F)(F)F)nc1)N1CCCC(c2ccccc2-c2ccc(F)nc2)C1 (stereo not drawn)
Result: condition not met
